target: mu opiate receptor (MOR) (Rattus norvegicus, UniProt P33535); construct: from tissue; host or cells: striatal tissue (membrane preparation); test: [35S]GTPγS binding assay using striatal membranes (MOR agonist activity); format: biochemical; parameters: reference not given here; details: 0.1 μM compound, striatal membranes
Sequence (P33535 whole entry): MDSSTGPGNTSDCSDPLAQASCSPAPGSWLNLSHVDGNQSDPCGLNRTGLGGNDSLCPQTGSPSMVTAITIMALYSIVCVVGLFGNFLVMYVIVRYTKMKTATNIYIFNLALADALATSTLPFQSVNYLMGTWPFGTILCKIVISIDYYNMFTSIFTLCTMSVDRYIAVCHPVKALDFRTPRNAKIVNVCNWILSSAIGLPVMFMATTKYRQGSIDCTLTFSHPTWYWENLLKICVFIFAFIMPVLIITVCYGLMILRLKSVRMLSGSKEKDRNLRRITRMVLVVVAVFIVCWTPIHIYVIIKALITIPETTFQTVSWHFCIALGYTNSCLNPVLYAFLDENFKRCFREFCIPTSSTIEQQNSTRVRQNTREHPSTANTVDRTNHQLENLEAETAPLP
Below: a set of entries, each annotated with reported MOR agonist activity, [35S]GTPγS binding to Gαo, 0.1 μM.

[
  {
    "molecule": "COc1c2c(cc3c1C(CC(=O)CCc1ccccc1)N(C)CC3)OCO2 (stereo not drawn) [B0050]",
    "measurement": "98.2%"
  },
  {
    "molecule": "COc1c2c(cc3c1C(CC(O)CCc1ccccc1)N(C)CC3)OCO2 (stereo not drawn) [B0051]",
    "measurement": "115.6%"
  }
]

Query: MOR agonist activity, [35S]GTPγS binding to Gαo, 0.1 μM; subject: COc1ccc(CCC(O)CC2c3c(cc4c(c3OC)OCO4)CC[N+]2(C)C)cc1 (stereo not drawn) [B0049] 181.6%

Same thing, different molecule: COc1cc(OC)cc(C(=O)CC2c3c(cc4c(c3OC)OCO4)CC[N+]2(C)C)c1.[I-] (stereo not drawn) [B0035] 188.0%

Same thing, different molecule: COc1ccccc1CC(O)CC1c2c(cc3c(c2OC)OCO3)CCN1C (stereo not drawn) [B0030] 107.2%

Same thing, different molecule: COc1c2c(cc3c1C(CC(=O)Cc1ccc(C#N)cc1)[N+](C)(C)CC3)OCO2 (stereo not drawn) [B0012] 167.4%

Same thing, different molecule: COc1ccccc1CC(O)CC1c2c(cc3c(c2OC)OCO3)CC[N+]1(C)C.[I-] (stereo not drawn) [B0032] 221.1%

Same thing, different molecule: COc1cccc(CCC(=O)CC2c3c(cc4c(c3OC)OCO4)CC[N+]2(C)C)c1 (stereo not drawn) [B0034] 122.5%

Same thing, different molecule: COc1c2c(cc3c1C(CC(=O)CCc1ccc(O)cc1)[N+](C)(C)CC3)OCO2.[I-] (stereo not drawn) [B0028] 199.1%

Same thing, different molecule: COc1c2c(cc3c1C(CC(=O)Cc1ccccc1F)[N+](C)(C)CC3)OCO2.[I-] (stereo not drawn) [B0055] 162.1%

Same thing, different molecule: COc1ccccc1CC(=O)CC1c2c(cc3c(c2OC)OCO3)CC[N+]1(C)C (stereo not drawn) [compound 5009] 128.5%

Same thing, different molecule: COc1cccc(OC)c1C(=O)CC1c2c(cc3c(c2OC)OCO3)CC[N+]1(C)C.[I-] (stereo not drawn) [B0023] 166.1%

Same thing, different molecule: COc1c2c(cc3c1C(CC(=O)/C=C/c1ccc(Cl)cc1)[N+](C)(C)CC3)OCO2 (stereo not drawn) [B0019] 101.0%

Same thing, different molecule: COc1c2c(cc3c1C(CC(=O)c1ccc(F)c(F)c1)[N+](C)(C)CC3)OCO2 (stereo not drawn) [B0003] 103.0%

Same thing, different molecule: COc1ccc(OC)c(CCC(=O)CC2c3c(cc4c(c3OC)OCO4)CC[N+]2(C)C)c1 (stereo not drawn) [B0044] 87.3%

Same thing, different molecule: COc1cc(CC(=O)CC2c3c(cc4c(c3OC)OCO4)CC[N+]2(C)C)cc(OC)c1OC (stereo not drawn) [B0008] 148.3%

Same thing, different molecule: COc1ccc(C(=O)CC2c3c(cc4c(c3OC)OCO4)CC[N+]2(C)C)c(O)c1.[I-] (stereo not drawn) [B0033] 149.3%

Same thing, different molecule: COc1c2c(cc3c1C(CC(=O)Cc1ccc(Br)cc1)[N+](C)(C)CC3)OCO2 (stereo not drawn) [B0011] 158.6%

====

Molecular target: mu opiate receptor (MOR) (Rattus norvegicus, UniProt P33535)
Construct: from tissue; host or cells: striatal tissue (membrane preparation)
Experiment: [35S]GTPγS binding assay using striatal membranes (MOR agonist activity)
Type: biochemical
Design: reference not given here
Details: 1 μM compound + 1 μM β-funaltrexamine
Description: To assess the mu opiate receptor (MOR) agonist activity of positive compounds from the FLNA screening, compounds were tested in a [^35S]GTPγS binding assay using striatal membranes. […] The immunocomplexes so formed were collected by incubation at 25° C. for 30 minutes with 40 μl of agarose-conjugated protein A/G beads and centrifugation at 5,000×g at 4° C. for 5 minutes. […] The radioactivity in the suspension was determined by liquid scintillation spectrometry. […]
Below: a set of entries, each annotated with reported MOR agonist activity, [35S]GTPγS binding to Gαo, 1 μM + BFNA.
Form entry: value (%) — number only.

Would you please look over these solved cases?
[
  {
    "compound": "COc1ccc(CCC(O)CC2c3c(cc4c(c3OC)OCO4)CCN2C)cc1 (centres unmarked)",
    "value-unit": "%",
    "measurement": 78.5
  },
  {
    "compound": "COc1ccc(CCC(=O)CC2c3c(cc4c(c3OC)OCO4)CC[N+]2(C)C)cc1OC.[I-] (centres unmarked)",
    "value-unit": "%",
    "measurement": 43.1
  },
  {
    "compound": "COc1c2c(cc3c1C(CC(=O)/C=C/c1ccc(Cl)cc1)[N+](C)(C)CC3)OCO2 (centres unmarked)",
    "value-unit": "%",
    "measurement": 81.4
  },
  {
    "compound": "COc1cccc(CCC(=O)CC2c3c(cc4c(c3OC)OCO4)CC[N+]2(C)C)c1 (centres unmarked)",
    "value-unit": "%",
    "measurement": 41.8
  }
]

Could you now look at the following compound, please?
Query: MOR agonist activity, [35S]GTPγS binding to Gαo, 1 μM + BFNA; subject: COc1cccc(OC)c1C(=O)CC1c2c(cc3c(c2OC)OCO3)CC[N+]1(C)C.[I-] (centres unmarked) 28.4

====

Below: a set of entries, each annotated with reported MOR agonist activity, [35S]GTPγS binding to Gαo, 1 μM.
target: mu opiate receptor (MOR) (Rattus norvegicus, UniProt P33535); construct: from tissue; host or cells: striatal tissue (membrane preparation); assay: [35S]GTPγS binding assay using striatal membranes (MOR agonist activity); format: biochemical; set-up: reference not given here; conditions: 1 μM compound, striatal membranes
Form entry: value (%) — number only.

Would you please look over these solved cases?
[
  {
    "compound": "COc1c2c(cc3c1C(CC(=O)c1ccncc1)[N+](C)(C)CC3)OCO2 (centres unmarked)",
    "measurement": 110.4
  },
  {
    "compound": "COc1ccc(C(=O)CC2c3c(cc4c(c3OC)OCO4)CC[N+]2(C)C)c(O)c1.[I-] (centres unmarked)",
    "measurement": 188.9
  },
  {
    "compound": "COc1c2c(cc3c1C(CC(=O)Cc1ccccc1C)N(C)CC3)OCO2 (centres unmarked)",
    "measurement": 299.8
  },
  {
    "compound": "COc1cc(OC)cc(C(=O)CC2c3c(cc4c(c3OC)OCO4)CC[N+]2(C)C)c1.[I-] (centres unmarked)",
    "measurement": 248.7
  }
]

Could you now look at the following compound, please?
Query: MOR agonist activity, [35S]GTPγS binding to Gαo, 1 μM; subject: COc1cc(F)ccc1C(=O)CC1c2c(cc3c(c2OC)OCO3)CC[N+]1(C)C (centres unmarked) 223.3

====

Target: Bn-VAKGL pentapeptide of filamin A (FLNA) (Homo sapiens, UniProt P21333)
Test: FITC-NLX-based FLNA screening assay (FLNA peptide binding assay)
Conditions: 0.1 μM compound, 10 nM FITC-NLX
Method: The final assay volume is 100 μl. Compounds are tested in triplicate or quadruplicate.
reported-metric: Percent inhibition of FITC-NLX binding, 0.1 μM (%)
Form entry: value (%) — number only.

[
  {
    "molecule": "COc1cccc(OC)c1C(=O)CC1c2c(cc3c(c2OC)OCO3)CC[N+]1(C)C.[I-] (centres unmarked)",
    "measurement": 37.8
  }
]

Query: Percent inhibition of FITC-NLX binding, 0.1 μM; subject: COc1c2c(cc3c1C(CC(O)CCc1ccccc1)[N+](C)(C)CC3)OCO2 (centres unmarked) 39.1

Same thing, different molecule: COCOc1ccc(CCC(=O)CC2c3c(cc4c(c3OC)OCO4)CC[N+]2(C)C)cc1.[I-] (centres unmarked) 53.1

Same thing, different molecule: COc1ccc(CCC(=O)CC2c3c(cc4c(c3OC)OCO4)CC[N+]2(C)C)c(OC)c1 (centres unmarked) 39.2

Same thing, different molecule: COc1ccc(CCC(=O)CC2c3c(cc4c(c3OC)OCO4)CC[N+]2(C)C)cc1OC.[I-] (centres unmarked) 46.4

====

Below: a set of entries, each annotated with reported Percent inhibition of FITC-NLX binding, 0.01 μM.
target: Bn-VAKGL pentapeptide of filamin A (FLNA) (Homo sapiens); assay: FITC-NLX-based FLNA screening assay (FLNA peptide binding assay); details: 0.01 μM compound, 10 nM FITC-NLX
Form entry: value (%) — number only.

Query: Percent inhibition of FITC-NLX binding, 0.01 μM; subject: COc1cccc(OC)c1C(=O)CC1c2c(cc3c(c2OC)OCO3)CC[N+]1(C)C.[I-] (stereo not shown) 28.5

Same thing, different compound: COc1c2c(cc3c1C(CC(=O)CCc1ccc(Cl)cc1)[N+](C)(C)CC3)OCO2 (stereo not shown) 28.3

Same thing, different compound: COc1ccc(C(=O)CC2c3c(cc4c(c3OC)OCO4)CC[N+]2(C)C)cc1OC.[I-] (stereo not shown) 41.1
